Tested on: HBV
Assay: Test of Anti-HBV Activity in Hep G2 2.2.15 cell lines
Assay type: cell-based
Settings: human, hep g2 2.2.15 cells
Protocol: The anti-HBV activity of the compounds according to the present invention, was tested in Hep G2 2.2.15 cell lines, as using 2',3'-dideoxycytidine as a control compound.
Sl (CC50 /EC90) values, listed per item
No unit in the answer, please; the number alone is enough.

                                   molecule  target_or_test_system     readout_kind  reported_measurement
0  O=c1[nH]c(=O)n([C@H]2C[C@](F)(CO)CO2)cc1I (relative stereo) [Compound 16]                    HBV  Sl (CC50 /EC90)                    85
1  O=c1[nH]c(=O)n([C@@H]2C[C@](F)(CO)CO2)cc1I (relative stereo) [Compound 15]                    HBV  Sl (CC50 /EC90)                   501
2  Nc1nc(=O)n([C@@H]2C[C@](F)(CO)CO2)cc1F (relative stereo) [Compound 9]                    HBV  Sl (CC50 /EC90)                   319

// next item, Sl (CC50 /EC90) requested
stdin: Requested read-out Sl (CC50 /EC90), target or system HBV, entry Cc1cn([C@@H]2C[C@](F)(CO)CO2)c(=O)[nH]c1=O (relative stereo) [Compound 5]
stdout: 590

====

Tested on: HBV
Test: Test of Anti-HBV Activity in Hep G2 2.2.15 cell lines
Assay type: cell-based
Settings: Hepatitis B virus, HepG2 2.2.15
Procedure: The anti-HBV activity of the compounds according to the present invention, was tested in Hep G2 2.2.15 cell lines, as using 2',3'-dideoxycytidine as a control compound.
readout_kind: EC50

stdin: Looking for the measured EC50 of Nc1ccn([C@H]2CC[C@@H](CO)O2)c(=O)n1 [Control compound, 2',3'-dideoxycytidine, reference compound] , can you help?
stdout: 7.57 µM

====

Test system: HBV
Assay: Test of Anti-HBV Activity in Hep G2 2.2.15 cell lines
Type: cell-based
Details: human, hep g2 2.2.15 cells
Sl (CC50 /EC90) values, listed per item

>>> print(df.to_string())
                                   compound     readout_kind  reported_measurement
0  Nc1ccn([C@H]2C[C@](F)(CO)CO2)c(=O)n1 (relative stereo) [Compound 8]  Sl (CC50 /EC90)                 2,874
1  Cc1cn([C@H]2C[C@](F)(CO)CO2)c(=O)[nH]c1=O (relative stereo) [Compound 6]  Sl (CC50 /EC90)                 2,321
2  Nc1ccn([C@@H]2C[C@](F)(CO)CO2)c(=O)n1 (relative stereo) [Compound 7]  Sl (CC50 /EC90)                10,811

stdin: Looking for the measured Sl (CC50 /EC90) of Nc1nc(=O)n([C@H]2C[C@](F)(CO)CO2)cc1F (relative stereo) [Compound 10] , can you help?
stdout: 1,444

Recorded values, source patent US6072051A.
